Exercise: for every item that follows, state its recorded IC50.
target: Calpain-2 catalytic subunit (Sus scrofa); assay: pig calpain II inhibitor potency, dose response, biochemical, fluorogenic peptide substrate (AID 1420); assay type: functional
Sequence (P43367 whole entry): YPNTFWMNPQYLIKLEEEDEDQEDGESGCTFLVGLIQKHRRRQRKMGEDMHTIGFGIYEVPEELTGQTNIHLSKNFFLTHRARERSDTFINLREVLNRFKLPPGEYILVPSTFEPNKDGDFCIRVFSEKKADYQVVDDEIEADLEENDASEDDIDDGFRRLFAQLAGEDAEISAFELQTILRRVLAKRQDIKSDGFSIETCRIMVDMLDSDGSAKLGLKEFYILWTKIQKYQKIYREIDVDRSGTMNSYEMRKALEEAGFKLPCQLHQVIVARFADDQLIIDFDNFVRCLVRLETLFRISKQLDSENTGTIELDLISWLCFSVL

Provide each entry's IC50 from the list below.
1. CC(=O)Nc1nc(CCl)cs1
2. CCCCNC(=S)NC(=O)c1ccc(Cl)cc1Cl
3. CCC(C(=O)OCC(=O)Nc1ccc(Cl)c(S(=O)(=O)N(C)C)c1)c1ccccc1 (stereo unspecified)
4. C/C(N)=C(/C#N)C(=O)COC(=O)CC12CC3CC(CC(C3)C1)C2
5. c1ccc2c(C3=NN=C(NC4CCCCC4)SC3)c[nH]c2c1
6. Cc1cc(C(C)(C)C)oc1C(=O)N(CC(=O)NC1CCCC1)Cc1ccccc1Cl
7. CC(=O)Nc1cc(C(=O)OC(C(=O)c2ccccc2)c2ccccc2)ccc1C (stereo unspecified)

1. > 50 µM (not active)
2. 4.25 µM (not active)
3. 13.3 µM (not active)
4. 12 µM (not active)
5. 6.76 µM (not active)
6. 2.28 µM (not active)
7. > 50 µM (not active)

Provide each entry's IC50 from the list below.
1. Cc1cc(C)nc(N=C(N)N(Cc2ccccc2)Cc2ccccc2)n1
2. COc1ccc(N(C(=O)c2ccco2)S(=O)(=O)c2cc(Cl)c(Cl)cc2Cl)cc1
3. CC(=O)Nc1ccc(NC(=O)Cc2ccc(S(=O)(=O)N3CCCCC3)s2)cc1
4. O=C(Nc1ccc2ccccc2c1)C(=O)C1C(=O)Nc2ccccc21 (stereo unspecified)

1. > 50 µM (not active)
2. 11 µM (not active)
3. 2.64 µM (not active)
4. < 0.4 µM (not active)

----------
test system: Streptococcus sp. 'group A'; test: growth inhibition of control SK(-) GAS strain, dose response, counter-screen for streptokinase expression inhibitor project, luminescence, kanamycin, BacTiterGlo, confirmation (AID 1900); type: functional, organism-based
Active and inactive are the calls of the source.
Exercise: for every item that follows, state its recorded EC50.

Below: 5 molecules and their reported EC50.
COc1cccc(C(=O)NC(=S)N2CCN(c3ccc(C(F)(F)F)cc3[N+](=O)[O-])CC2)c1    > 150 µM (not active)
CC(C)c1ccc2c(c1)c(SC(C)(C)C)c(CC(C)(C)C(=O)O)n2Cc1ccc(Cl)cc1    1.07 µM (active)
CCCOC(=O)c1ccc(Oc2c(C)n[nH]c2-c2ccc(OCC)cc2O)cc1    11.1 µM (active)
O=C1CC(N(CCc2ccccc2)C(=S)Nc2ccccc2)C(=O)N1c1ccc(Br)cc1 (stereo unspecified)    2.87 µM (active)
CCOC(=O)c1csc(NC(=O)c2ccc3c(c2)OCCO3)n1    > 150 µM (not active)

Consider now this further molecule.
# EC50 of Cc1ccc(NC2=C/C(=N\S(=O)(=O)c3cccs3)c3ccccc3C2=O)c(C)c1 = 2.99 µM (active)

----------
Exercise: for every item that follows, state its recorded IC50.
target: Apoptotic protease-activating factor 1 (Homo sapiens); assay type: functional
Sequence (O14727 whole entry): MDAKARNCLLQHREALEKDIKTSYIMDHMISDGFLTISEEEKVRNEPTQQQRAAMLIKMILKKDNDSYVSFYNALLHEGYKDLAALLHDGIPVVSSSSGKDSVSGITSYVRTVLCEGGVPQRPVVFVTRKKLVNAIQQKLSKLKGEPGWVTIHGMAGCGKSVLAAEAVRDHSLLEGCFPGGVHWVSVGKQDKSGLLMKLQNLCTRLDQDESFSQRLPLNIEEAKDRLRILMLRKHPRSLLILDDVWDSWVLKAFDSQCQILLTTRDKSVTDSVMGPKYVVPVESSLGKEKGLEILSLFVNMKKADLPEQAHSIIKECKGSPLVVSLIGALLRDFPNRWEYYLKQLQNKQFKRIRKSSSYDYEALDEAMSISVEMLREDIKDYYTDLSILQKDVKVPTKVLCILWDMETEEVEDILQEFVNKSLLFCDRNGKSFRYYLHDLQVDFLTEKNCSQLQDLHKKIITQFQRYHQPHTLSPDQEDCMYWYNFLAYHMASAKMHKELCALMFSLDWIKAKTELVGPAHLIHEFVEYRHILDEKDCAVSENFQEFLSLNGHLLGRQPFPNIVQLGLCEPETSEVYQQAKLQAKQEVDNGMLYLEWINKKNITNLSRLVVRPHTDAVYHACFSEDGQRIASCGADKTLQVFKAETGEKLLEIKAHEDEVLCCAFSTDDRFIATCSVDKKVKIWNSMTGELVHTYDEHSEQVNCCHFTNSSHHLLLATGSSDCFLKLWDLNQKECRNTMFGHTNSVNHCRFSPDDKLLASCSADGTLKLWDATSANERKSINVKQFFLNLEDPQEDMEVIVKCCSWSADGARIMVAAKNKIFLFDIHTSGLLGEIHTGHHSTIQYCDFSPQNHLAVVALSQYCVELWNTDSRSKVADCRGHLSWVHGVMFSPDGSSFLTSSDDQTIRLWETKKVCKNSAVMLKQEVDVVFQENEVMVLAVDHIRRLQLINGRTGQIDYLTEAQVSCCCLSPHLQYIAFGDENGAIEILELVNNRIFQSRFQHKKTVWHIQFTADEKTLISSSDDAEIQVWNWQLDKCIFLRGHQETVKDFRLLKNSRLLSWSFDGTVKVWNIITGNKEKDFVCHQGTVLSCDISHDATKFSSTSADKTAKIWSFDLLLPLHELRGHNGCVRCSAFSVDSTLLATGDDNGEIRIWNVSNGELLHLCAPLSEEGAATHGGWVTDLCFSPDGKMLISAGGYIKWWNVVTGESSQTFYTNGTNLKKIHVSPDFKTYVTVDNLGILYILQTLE
Active and inactive are the calls of the source.

Below: 4 molecules and their reported IC50.
Oc1c(Br)cc(Br)cc1CNc1cccc2cccnc12    40.2 µM (active)
COc1ccc(/C=N/NC(=O)c2nn(-c3ccccc3)c(=O)c3c(N)scc23)cc1    15.3 µM (active)
CC(=O)N(C1=C(Cl)C(=O)c2ccccc2C1=O)C1CCCCC1    3.12 µM (active)
N#Cc1c(N(CCO)CCO)nc(N)c2c(N)nc3c(c12)CC(=O)N3Cc1cccs1    20.7 µM (active)

Consider now this further molecule.
# IC50 of Cc1ccc(NC2=C/C(=N\S(=O)(=O)c3cccs3)c3ccccc3C2=O)c(C)c1 = 0.411 µM (active)

----------
target: High affinity choline transporter 1 (Homo sapiens); experiment: CHT inhibitors, dose response, cell-based, 5-point CRC, membrane potential dye (AID 504840); type: functional
Sequence (Q9GZV3 whole entry): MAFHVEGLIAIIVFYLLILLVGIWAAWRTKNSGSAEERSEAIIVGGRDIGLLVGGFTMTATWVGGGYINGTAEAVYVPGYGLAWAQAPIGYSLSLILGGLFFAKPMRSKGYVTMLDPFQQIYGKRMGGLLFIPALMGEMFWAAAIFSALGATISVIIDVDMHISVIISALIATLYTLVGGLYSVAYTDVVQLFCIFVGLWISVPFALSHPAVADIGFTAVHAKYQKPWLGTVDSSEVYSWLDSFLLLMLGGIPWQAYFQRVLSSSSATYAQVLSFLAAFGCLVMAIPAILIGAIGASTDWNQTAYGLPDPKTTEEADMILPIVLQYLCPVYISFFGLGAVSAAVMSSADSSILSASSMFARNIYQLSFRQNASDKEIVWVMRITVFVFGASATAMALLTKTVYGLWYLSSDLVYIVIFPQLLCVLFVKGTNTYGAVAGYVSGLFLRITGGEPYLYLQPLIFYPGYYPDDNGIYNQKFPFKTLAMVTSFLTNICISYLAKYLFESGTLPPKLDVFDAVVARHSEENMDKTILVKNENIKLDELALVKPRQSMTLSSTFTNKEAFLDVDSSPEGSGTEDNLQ
Activity calls are given as the source filed them.
Exercise: for every item that follows, state its recorded IC50.

COC(=O)Cn1ccc(N(C)C)c(C#N)c1=O    4.07 µM (active)
Cc1ccccc1NC(=O)c1ccc(C)c(S(=O)(=O)NCc2cccnc2)c1    9.77 µM (active)

Provide each entry's IC50 from the list below.
1. Cc1cc(C)cc(CC(Cc2nc3ccccc3[nH]2)c2nc3ccccc3[nH]2)c1 (stereo not given)
2. CCN(CC)c1[nH]cnc2c3ccccc3nc1-2
3. c1cn(C23CC4CC(CC(C4)C2)C3)cn1
4. CCc1cc(CNC(=O)c2ccc(OC)c(OC3CCN(C(C)C)CC3)c2)on1

1. 15.8 µM (active)
2. 13.8 µM (active)
3. 7.43 µM (active)
4. 0.316 µM (active)

----------
Exercise: for every item that follows, state its recorded EC50.
Biological target: Streptokinase A (Streptococcus pyogenes serotype M1, UniProt P10520)
Sequence (P10520 whole entry): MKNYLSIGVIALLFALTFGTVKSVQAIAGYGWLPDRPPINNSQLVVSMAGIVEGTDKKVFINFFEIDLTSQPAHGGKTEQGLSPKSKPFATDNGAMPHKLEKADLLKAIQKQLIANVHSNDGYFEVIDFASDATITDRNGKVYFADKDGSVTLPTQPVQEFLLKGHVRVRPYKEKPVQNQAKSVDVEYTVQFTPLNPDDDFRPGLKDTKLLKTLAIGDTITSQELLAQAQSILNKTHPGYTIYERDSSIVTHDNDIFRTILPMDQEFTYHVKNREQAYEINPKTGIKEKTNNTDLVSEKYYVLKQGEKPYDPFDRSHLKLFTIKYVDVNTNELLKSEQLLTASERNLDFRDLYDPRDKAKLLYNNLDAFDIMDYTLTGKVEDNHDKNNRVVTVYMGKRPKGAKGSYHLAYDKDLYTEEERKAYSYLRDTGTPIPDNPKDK
Assay: S. pyogenes streptokinase expression inhibitors, potency, dose response, plasminogen activation absorbance, OD405 (AID 1914);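 further: secreted streptokinase activity via plasminogen activation per viability signal from cell pellet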
Format: functional, Streptococcus pyogenes M1 GAS
Active and inactive are the calls of the source.

Cc1ccc(C(NC(=O)NC(C)c2ccccc2)C(Cl)(Cl)Cl)cc1F (stereo not given)    7.32 µM (active)
CCOC(=O)c1csc(NC(=O)c2ccc3c(c2)OCCO3)n1    > 150 µM (not active)
Oc1c(Br)cc(Br)cc1CNc1cccc2cccnc12    > 150 µM (not active)
COc1ccc2nc(N=C(N)NC(=S)Nc3c(C)cccc3C)nc(C)c2c1    42 µM (inconclusive)
Nc1nc(Nc2ccccc2)nc(NC2CCCCC2)c1[N+](=O)[O-]    > 150 µM (not active)
Cc1cccc(NC(=O)C2SC(Nc3c(C)cccc3C)=C(C(=O)N3CCOCC3)C2=N)c1 (stereo not given)    3.32 µM (active)
CCOc1c(OC(C)=O)ccc(/C=C/c2ccc3cccc(OC(C)=O)c3n2)c1[N+](=O)[O-]    > 150 µM (not active)
Cc1cc(C)n(-c2nc(Nc3ccccc3C(F)(F)F)nc(-n3nc(C)cc3C)n2)n1    > 150 µM (not active)
CCCc1ccc(-c2cc(C(=O)N/N=C/c3ccc([N+](=O)[O-])o3)c3ccccc3n2)cc1    > 150 µM (not active)
O=C1CC(N(CCc2ccccc2)C(=S)Nc2ccccc2)C(=O)N1c1ccc(Br)cc1 (stereo not given)    2.67 µM (active)

Provide each entry's EC50 from the list below.
1. COc1cccc(C(=O)NC(=S)N2CCN(c3ccc(C(F)(F)F)cc3[N+](=O)[O-])CC2)c1
2. O=C(Nc1nc(-c2cc(Cl)sc2Cl)cs1)c1cccs1
3. CC(C)c1ccc2c(c1)c(SC(C)(C)C)c(CC(C)(C)C(=O)O)n2Cc1ccc(Cl)cc1
4. CCCOC(=O)c1ccc(Oc2c(-c3ccc(OCC)cc3O)n[nH]c2C)cc1
5. O=C(OCc1ccc(COC(=O)c2ccc(O)cc2)cc1)c1ccc(O)cc1
6. CCCCOc1ccc(-c2c(C#N)c(N)nc(SCC(N)=O)c2C#N)cc1
7. CCCc1nc2ccccc2c(C(=O)OCC(=O)Nc2ccc(S(=O)(=O)N3CCOCC3)cc2)c1CC

> 150 µM (not active)
> 50 µM (not active)
1.24 µM (active)
> 150 µM (not active)
> 150 µM (not active)
> 150 µM (not active)
26 µM (active)

----------
target: Corticotropin-releasing factor receptor 2/Corticotropin-releasing factor-binding protein (Homo sapiens, UniProt P24387+Q13324); assay: activators of CRF receptor 2 with binding protein – uHTS hits, confirmation (AID 602473); format: functional; details: read-out: EC50_Mean
Sequence (Q13324 whole entry): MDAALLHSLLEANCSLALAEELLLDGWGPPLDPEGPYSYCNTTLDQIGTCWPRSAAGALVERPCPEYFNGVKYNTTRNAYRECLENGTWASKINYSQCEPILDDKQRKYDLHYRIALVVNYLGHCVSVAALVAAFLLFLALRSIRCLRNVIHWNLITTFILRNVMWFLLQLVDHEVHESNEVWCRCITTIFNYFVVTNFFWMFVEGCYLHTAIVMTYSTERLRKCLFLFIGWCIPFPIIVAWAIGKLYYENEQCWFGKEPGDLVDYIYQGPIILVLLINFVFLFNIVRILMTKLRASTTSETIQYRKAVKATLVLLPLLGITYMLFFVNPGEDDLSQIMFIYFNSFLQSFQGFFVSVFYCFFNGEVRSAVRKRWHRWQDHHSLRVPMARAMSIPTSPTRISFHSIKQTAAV
Sequence (P24387 whole entry): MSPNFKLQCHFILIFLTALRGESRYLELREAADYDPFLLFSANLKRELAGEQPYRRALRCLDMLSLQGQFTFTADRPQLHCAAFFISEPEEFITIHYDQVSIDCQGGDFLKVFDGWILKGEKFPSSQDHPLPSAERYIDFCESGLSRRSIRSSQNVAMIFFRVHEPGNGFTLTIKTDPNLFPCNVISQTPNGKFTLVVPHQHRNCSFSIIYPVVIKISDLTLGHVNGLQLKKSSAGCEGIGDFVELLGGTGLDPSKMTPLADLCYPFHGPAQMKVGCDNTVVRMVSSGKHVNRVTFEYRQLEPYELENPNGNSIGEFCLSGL
Calls of active or inactive are those of the source.
// one of TRUE (active), FALSE (inactive), no free text

Worked examples, 5 compounds total:
CC12CCCCN1CCCc1c2[nH]c2ccccc12 (stereo unspecified)    TRUE
Fc1ccc(OCCCCCn2ccnc2)cc1    FALSE
Cn1ccnc1SCc1cn2ccccc2n1    FALSE
CCOC(=O)c1c(NC(=O)C(C)Sc2cccc[n+]2[O-])sc2c1CCN(Cc1ccccc1)C2 (stereo unspecified)    TRUE
COc1ccc(Cc2nc(-c3ccc(Cl)cc3)no2)cc1    FALSE

Any idea what this test logged for COC(=O)c1ccc(OC(=O)c2nn(C)cc2Cl)c(OC)c1 ?
FALSE

Any idea what this test logged for CCCS(=O)(=O)c1nc(S(=O)(=O)c2ccc(C)cc2)c(N2CCCC2)s1 ?
FALSE

Any idea what this test logged for CN(C)c1ccc(C(=O)NNC(=O)c2ccc(Cl)cc2)cc1 ?
FALSE

Any idea what this test logged for COC(=O)C1=C(C(=O)c2ccccc2)C(c2ccc(O)c(OC)c2)n2nnnc2N1 (stereo unspecified) ?
FALSE

Any idea what this test logged for COc1ccc(C2=CC(c3ccc(C)cc3)n3nnnc3N2)cc1 (stereo unspecified) ?
FALSE

Any idea what this test logged for COc1ccc2c(C)cc(SCn3nnc4ccccc4c3=O)nc2c1 ?
FALSE

All figures here come from ChEMBL document CHEMBL1201862.
